Reported IC50 Fold Change values are given for each entry in this list.
System: HIV
Test: microbe, parasite or virus in culture
Assay type: cell-based
Conditions: PANEL 44, D67N + K70R + T215F + K219E + M184V

compound: C[C@H](Cn1cnc2c(N)ncnc21)OCP(=O)(O)O [TFV, (R)-9-(2-phosphonylmethoxypropyl)adenine]
assayed target: HIV
sign qualifier: =
IC50 Fold Change: 0.91
--
compound: Nc1nc(=O)n(C2CSC(CO)O2)cc1F (centres unmarked)
assayed target: HIV
sign qualifier: >
IC50 Fold Change: 87.6048
--
compound: Nc1nc(NC2CC2)c2ncn([C@H]3C=C[C@@H](CO)C3)c2n1
assayed target: HIV
sign qualifier: =
IC50 Fold Change: 4.36
--
compound: Cc1cn([C@H]2C=C[C@@H](CO)O2)c(=O)[nH]c1=O [d4T, 2′,3′-didehydro-3′-deoxythymidine]
assayed target: HIV
sign qualifier: =
IC50 Fold Change: 1.32
--
compound: OC[C@@H]1CC[C@H](n2cnc3c(O)ncnc32)O1
assayed target: HIV
sign qualifier: =
IC50 Fold Change: 1.57

Origin of values: patent US8993542B2
